Parameter: inhibition at 1.25 µM. Scope: all listed entries.
target: recombinant PCSK9 (Homo sapiens); test: DiI-LDL Uptake Assay in HepG2 cells; type: cell-based; settings: 1.25 uM compound, 2.5 ug/mL PCSK9, DiI-LDL 5 ug/ml, read-out: Uptake Assay: % Inhibition of 2.5 ug/mL recombinant PCSK9 @ X compound dose
Sequence (Q8NBP7 153-692): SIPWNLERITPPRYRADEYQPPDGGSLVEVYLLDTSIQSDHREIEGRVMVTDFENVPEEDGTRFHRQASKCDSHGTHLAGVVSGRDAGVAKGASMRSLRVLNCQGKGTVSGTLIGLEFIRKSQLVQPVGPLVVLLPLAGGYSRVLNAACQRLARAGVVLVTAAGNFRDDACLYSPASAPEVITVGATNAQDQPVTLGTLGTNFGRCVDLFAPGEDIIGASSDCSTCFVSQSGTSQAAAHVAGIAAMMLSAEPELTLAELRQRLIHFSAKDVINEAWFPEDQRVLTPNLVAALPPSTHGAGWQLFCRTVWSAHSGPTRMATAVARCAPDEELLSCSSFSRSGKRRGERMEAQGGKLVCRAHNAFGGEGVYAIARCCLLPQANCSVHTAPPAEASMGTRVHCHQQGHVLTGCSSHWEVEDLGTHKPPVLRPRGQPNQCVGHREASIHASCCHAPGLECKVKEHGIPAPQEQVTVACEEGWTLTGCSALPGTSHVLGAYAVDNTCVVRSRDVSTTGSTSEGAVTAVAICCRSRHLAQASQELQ

The examples below pair each entry with its known result.
smilesCode | inhibition at 1.25 µM
CC(C)NC(=O)[C@@H](N)Cc1ccc(-c2cccc(O)c2)cc1 | ~44%
Cc1cc(C[C@H](N)C(=O)NC(C)C)ccc1-c1cccc(O)c1 | ~28%

Param item = `CC(C)NC(=O)[C@@H](N)Cc1ccc(-c2ccccc2)cc1` ; retrieve measured inhibition at 1.25 µM.
~15%

Param item = `CC(C)NC(=O)[C@@H](N)Cc1ccc(-c2cc[nH]c(=O)c2)cc1` ; retrieve measured inhibition at 1.25 µM.
~40%
